biological target: c-Kit (Homo sapiens, UniProt P10721); experiment: c-Kit biochemical assay (per US 2007/0032519)
Sequence (P10721 26-976): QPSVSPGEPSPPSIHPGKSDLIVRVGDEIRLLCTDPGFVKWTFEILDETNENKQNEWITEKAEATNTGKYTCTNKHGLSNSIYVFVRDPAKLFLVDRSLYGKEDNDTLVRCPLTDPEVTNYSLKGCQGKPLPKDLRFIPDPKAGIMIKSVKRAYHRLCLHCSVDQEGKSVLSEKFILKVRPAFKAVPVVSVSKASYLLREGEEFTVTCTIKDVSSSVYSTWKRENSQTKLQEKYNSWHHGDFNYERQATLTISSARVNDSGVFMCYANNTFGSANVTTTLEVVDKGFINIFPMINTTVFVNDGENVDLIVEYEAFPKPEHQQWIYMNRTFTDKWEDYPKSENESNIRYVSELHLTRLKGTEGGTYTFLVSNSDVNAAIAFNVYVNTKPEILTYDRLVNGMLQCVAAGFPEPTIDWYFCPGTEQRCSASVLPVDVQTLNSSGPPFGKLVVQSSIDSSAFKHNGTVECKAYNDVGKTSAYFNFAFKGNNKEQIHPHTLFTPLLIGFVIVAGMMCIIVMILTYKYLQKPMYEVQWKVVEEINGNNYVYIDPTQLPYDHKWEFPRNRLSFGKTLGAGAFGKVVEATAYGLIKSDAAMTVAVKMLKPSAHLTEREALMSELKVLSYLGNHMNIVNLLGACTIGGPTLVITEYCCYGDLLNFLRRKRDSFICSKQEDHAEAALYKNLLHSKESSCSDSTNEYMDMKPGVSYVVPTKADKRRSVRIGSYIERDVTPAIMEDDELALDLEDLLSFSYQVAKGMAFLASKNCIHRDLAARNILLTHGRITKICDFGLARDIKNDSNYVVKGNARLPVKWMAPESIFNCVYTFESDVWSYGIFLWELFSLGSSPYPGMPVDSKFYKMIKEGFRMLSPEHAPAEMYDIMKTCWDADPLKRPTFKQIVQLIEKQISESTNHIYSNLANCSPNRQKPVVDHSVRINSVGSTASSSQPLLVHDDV
ENDPOINT NAME: IC50

// lookup IC50 for CS(=O)(=O)Nc1cccc(-c2cnc3[nH]cc(-c4ccc5c(c4)N(CC(F)(F)F)CCO5)c3n2)c1 [P-087] 10 to 200 µM

Record request: IC50 value, item CS(=O)(=O)Nc1cccc(-c2cnc3[nH]cc(-c4ccc5c(c4)OCO5)c3n2)c1 [P-058] 10 to 200 µM

---

biological target: FLT3-ITD (Homo sapiens, UniProt P36888); construct: FLT3-ITD; Invitrogen #PV6190; assay: FLT3-ITD biochemical kinase assay (AlphaScreen)
ENDPOINT NAME: IC50

Check out these entries, answers already filled in.
molecule="c1cc(-c2cnc3[nH]cc(-c4ccc5ncn(C6CCCNC6)c5c4)c3n2)cc(N2CCCCC2)n1 (centres unmarked) [P-339]" experimental_system="FLT3-ITD (Homo sapiens, UniProt P36888)" assay_value="0.0001 to 1 µM"
molecule="CC(C)(C)n1cnc2ccc(-c3c[nH]c4ncc(-c5cccc(S(=O)(=O)N6CCCC6)c5)nc34)cc21 [P-229]" experimental_system="FLT3-ITD (Homo sapiens, UniProt P36888)" assay_value="0.0001 to 1 µM"
molecule="CC(C)(C)n1cnc2ccc(-c3c[nH]c4ncc(-c5cccc(C#N)c5)cc34)cc21 [P-199]" experimental_system="FLT3-ITD (Homo sapiens, UniProt P36888)" assay_value="0.0001 to 1 µM"
molecule="CC(C)(C)n1cnc2ccc(-c3c[nH]c4ncc(-c5ccc(N6CCCCC6)cc5)nc34)cc21 [P-345]" experimental_system="FLT3-ITD (Homo sapiens, UniProt P36888)" assay_value="0.0001 to 1 µM"
molecule="CC(C)(C)n1cnc2ccc(-c3c[nH]c4ncc(-c5ccc(C#N)c(N6CCCC6)c5)nc34)cc21 [P-335]" experimental_system="FLT3-ITD (Homo sapiens, UniProt P36888)" assay_value="0.0001 to 1 µM"

Name the recorded IC50 for Cn1cnc2ccc(-c3c[nH]c4ncc(-c5cnn(CC(F)(F)F)c5)nc34)cc21 [P-176] . 0.0001 to 1 µM

Entry COc1cc(-c2cnc3[nH]cc(-c4ccc5ncn(C6CCCNC6)c5c4)c3n2)ccn1 (centres unmarked) [P-136] : reported IC50 = ? 0.0001 to 1 µM

Recorded IC50 for COc1cccc(-c2cnc3[nH]cc(-c4ccc5ncn(C)c5c4)c3c2)c1 [P-088] , please? 0.0001 to 1 µM

I'd like to know its IC50. The molecule in question is Cc1cc(-c2cnc3[nH]cc(-c4ccc5ncn(C(C)(C)C)c5c4)c3n2)ccn1 [P-403] 0.0001 to 1 µM

May I ask what IC50 has been recorded for CC(C)(C)n1cnc2ccc(-c3c[nH]c4ncc(-c5cnc(C#N)nc5)nc34)cc21 [P-352] ? 0.0001 to 1 µM

Reported IC50 for c1cc(-c2cnc3[nH]cc(-c4ccc5ncn(C6CCCNC6)c5c4)c3n2)cc(N2CCOCC2)n1 (centres unmarked) [P-262] : what is it? 0.0001 to 1 µM

Which value of IC50 has been reported for COc1cc(-c2cnc3[nH]cc(-c4ccc5ncn(C6CCCNC6)c5c4)c3n2)cc(OC)n1 (centres unmarked) [P-195] in the records? 0.0001 to 1 µM
